species: Canis familiaris; assay: Mean effective dose required to suppress ventricular ectopic rate in dog greater than or equal to 25% for a minimum duration of 10 min; format: functional; settings: Canis lupus familiaris, Cardiac ventricle, read-out: MED
value.type: minimal effective dose (mg/kg)

{"columns": ["compound", "value.type", "reported.result"],
 "data": [
  ["CC(C)N(CCC1(c2ccccc2)CC2CCCCN2C1=O)C(C)C.Cl (configuration not stated)", "minimal effective dose", 10],
  ["CC(C)N(CCC(CCC1CCCCN1)(C(N)=O)c1ccccc1Cl)C(C)C (configuration not stated)", "minimal effective dose", 12.5],
  ["CC(C)N(CCC(CCN1CCCCC1)(C(N)=O)c1ccccc1Cl)C(=O)c1ccccc1 (configuration not stated)", "minimal effective dose", 2],
  ["CC(C)N(CCC1(c2ccccc2Cl)CC2CCCCN2C1=O)C(C)C (configuration not stated)", "minimal effective dose", 3.5],
  ["CC(C)N(CCC1(c2ccc(-c3ccccc3)cc2)CC2CCCCN2C1=O)C(C)C (configuration not stated)", "minimal effective dose", 3],
  ["CC(=O)N(CCC(CCN1CCCCC1)(C(N)=O)c1ccccc1Cl)C(C)C (configuration not stated) [BIDISOMIDE]", "minimal effective dose", 9],
  ["CC(C)N(CCC(C(N)=O)(c1ccccc1)c1ccccn1)C(C)C (configuration not stated) [DISOPYRAMIDE]", "minimal effective dose", 10]
]}

The origin of these recorded values is ChEMBL document CHEMBL1124007.
